System: Pontederia vaginalis
experimental.protocol: Herbicidal activity against Monochoria vaginalis assessed as growth inhibition in paddy condition under greenhouse at 5 g/ha measured after 18 days by preemergence activity assay
Format: functional
measurement.setup: pre-emergence, 432 h, read-out: GI
Hi there, I'd appreciate the recorded inhibition of growth at 5 g/ha for every entry that follows.
Numbers only; they are read as %.

GET /values?readout=inhibition of growth at 5 g/ha&system=Pontederia vaginalis&item= CCOC(=O)c1cnn(C)c1S(=O)(=O)NC(=O)Nc1nc(C)cc(OC)n1
70

GET /values?readout=inhibition of growth at 5 g/ha&system=Pontederia vaginalis&item= COc1cc(OC)nc(NC(=O)NS(=O)(=O)c2c(C)cnn2C)n1
40

GET /values?readout=inhibition of growth at 5 g/ha&system=Pontederia vaginalis&item= COc1cc(OC)nc(NC(=O)NS(=O)(=O)c2c(S(=O)(=O)N(C)C)cnn2C)n1
70
